Procedure text: Plasma pharmacokinetics after IV and PO administration
Format: in vivo, male Sprague–Dawley rats
Condition notes: male, Sprague-Dawley, rat, plasma, iv, 1 mg/kg, IV 1 mg/kg, 0.5 h; read-out: Plasma concentration, mean
Recorded endpoint: concentration at 0.5 h (ng/mL)

- Compound: "Cc1ccc(Nc2ncc3c(n2)N(C)C(=O)N(c2cccc(N)c2)C3)cn1 [LZQ-02-023-01]"
  Readout number: 13.1

###

Procedure text: Plasma pharmacokinetics after IV and PO administration
Format: in vivo, male Sprague–Dawley rats
Condition notes: male, Sprague-Dawley, rat, plasma, iv, 1 mg/kg, IV administration, male SD rats; read-out: Plasma half-life (converted)

- Compound: "Cc1ccc(Nc2ncc3c(n2)N(C)C(=O)N(c2cccc(N)c2)C3)cn1 [LZQ-02-023-01]"
  half-life: "~37.2 min"

###

Experimental system: EZH2 [Y641N] (Homo sapiens, UniProt Q15910, Y641N)
Sequence (Q15910 whole entry Y641N): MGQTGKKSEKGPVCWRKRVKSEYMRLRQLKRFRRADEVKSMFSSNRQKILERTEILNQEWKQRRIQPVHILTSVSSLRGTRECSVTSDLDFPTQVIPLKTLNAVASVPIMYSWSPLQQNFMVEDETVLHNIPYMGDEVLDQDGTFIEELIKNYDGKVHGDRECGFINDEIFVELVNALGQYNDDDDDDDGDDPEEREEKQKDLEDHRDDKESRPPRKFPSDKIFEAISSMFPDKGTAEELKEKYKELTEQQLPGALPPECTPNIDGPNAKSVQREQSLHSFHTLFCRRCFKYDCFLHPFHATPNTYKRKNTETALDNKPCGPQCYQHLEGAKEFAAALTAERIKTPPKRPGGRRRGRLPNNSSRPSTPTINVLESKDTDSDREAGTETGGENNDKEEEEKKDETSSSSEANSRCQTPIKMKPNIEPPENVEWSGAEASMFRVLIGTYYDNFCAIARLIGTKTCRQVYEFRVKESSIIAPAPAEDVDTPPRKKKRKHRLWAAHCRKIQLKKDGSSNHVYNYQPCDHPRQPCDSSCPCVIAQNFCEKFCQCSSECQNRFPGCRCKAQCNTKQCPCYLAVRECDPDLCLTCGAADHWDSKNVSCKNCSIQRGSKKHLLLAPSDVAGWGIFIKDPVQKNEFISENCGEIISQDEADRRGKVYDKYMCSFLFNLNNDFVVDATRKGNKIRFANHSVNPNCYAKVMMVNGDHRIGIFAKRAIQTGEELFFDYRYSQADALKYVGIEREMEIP
Sequence (O75530 whole entry partner): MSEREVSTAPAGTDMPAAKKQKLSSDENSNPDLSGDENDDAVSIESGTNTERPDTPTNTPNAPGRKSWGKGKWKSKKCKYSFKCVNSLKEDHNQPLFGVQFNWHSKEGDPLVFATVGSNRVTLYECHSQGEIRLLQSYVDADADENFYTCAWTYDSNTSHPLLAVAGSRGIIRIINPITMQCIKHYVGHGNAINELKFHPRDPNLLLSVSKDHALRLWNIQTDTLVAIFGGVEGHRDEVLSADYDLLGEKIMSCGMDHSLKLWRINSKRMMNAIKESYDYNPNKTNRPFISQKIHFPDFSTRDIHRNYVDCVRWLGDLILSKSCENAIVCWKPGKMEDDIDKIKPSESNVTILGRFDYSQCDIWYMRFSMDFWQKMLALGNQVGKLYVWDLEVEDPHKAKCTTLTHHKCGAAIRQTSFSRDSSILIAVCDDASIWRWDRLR
Sequence (Q15022 whole entry partner): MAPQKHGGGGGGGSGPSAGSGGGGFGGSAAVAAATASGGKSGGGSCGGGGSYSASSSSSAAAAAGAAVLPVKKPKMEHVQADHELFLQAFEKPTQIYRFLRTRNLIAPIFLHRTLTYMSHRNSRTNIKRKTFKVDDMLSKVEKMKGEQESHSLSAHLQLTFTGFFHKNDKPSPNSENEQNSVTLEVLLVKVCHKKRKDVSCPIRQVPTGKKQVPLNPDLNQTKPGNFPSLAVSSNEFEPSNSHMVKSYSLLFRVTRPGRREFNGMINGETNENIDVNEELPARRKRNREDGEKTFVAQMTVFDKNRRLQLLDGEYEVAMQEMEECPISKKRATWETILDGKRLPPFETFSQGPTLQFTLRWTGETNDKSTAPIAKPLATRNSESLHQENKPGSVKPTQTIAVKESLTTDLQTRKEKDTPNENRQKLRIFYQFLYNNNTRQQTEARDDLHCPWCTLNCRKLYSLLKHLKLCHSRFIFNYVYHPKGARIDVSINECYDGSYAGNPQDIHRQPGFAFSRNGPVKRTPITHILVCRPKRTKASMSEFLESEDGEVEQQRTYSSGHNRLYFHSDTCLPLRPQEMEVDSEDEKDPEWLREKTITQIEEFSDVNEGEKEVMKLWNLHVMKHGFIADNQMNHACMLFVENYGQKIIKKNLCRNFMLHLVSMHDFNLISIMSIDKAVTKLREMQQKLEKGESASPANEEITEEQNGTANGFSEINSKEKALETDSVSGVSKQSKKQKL
Sequence (Q09028 whole entry partner): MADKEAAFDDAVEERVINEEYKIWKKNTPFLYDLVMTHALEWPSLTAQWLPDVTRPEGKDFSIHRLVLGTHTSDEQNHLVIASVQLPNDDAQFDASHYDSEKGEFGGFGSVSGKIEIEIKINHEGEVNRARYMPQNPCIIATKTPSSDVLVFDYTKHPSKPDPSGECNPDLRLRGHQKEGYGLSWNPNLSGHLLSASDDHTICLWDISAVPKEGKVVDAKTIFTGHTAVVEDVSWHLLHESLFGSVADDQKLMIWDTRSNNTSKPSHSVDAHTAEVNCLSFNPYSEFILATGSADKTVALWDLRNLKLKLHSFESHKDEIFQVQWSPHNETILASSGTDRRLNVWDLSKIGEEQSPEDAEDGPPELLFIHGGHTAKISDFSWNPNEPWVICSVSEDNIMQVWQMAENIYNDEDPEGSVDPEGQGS
Procedure text: Off-target methyltransferase profiling (MTase-Glo)
Experimental: To evaluate the off‐target effects of LZQ‐02‐023‐01 on methyltransferase activity, a panel of enzymes was assessed using the MTase‐Glo Methyltransferase Assay (Promega), following the manufacturer's instructions. […] Luminescence signals were directly proportional to methyltransferase activity, were recorded using a microplate reader (BMG LABTECH). […]
pIC50: −log10 of the molar value.

- Smiles input: "Cc1ccc(Nc2ncc3c(n2)N(C)C(=O)N(c2cccc(N)c2)C3)cn1"
  pIC50: 4.91

###

Experimental system: PRMT4 (Homo sapiens, UniProt Q86X55)
Sequence (Q86X55 whole entry, species assumed): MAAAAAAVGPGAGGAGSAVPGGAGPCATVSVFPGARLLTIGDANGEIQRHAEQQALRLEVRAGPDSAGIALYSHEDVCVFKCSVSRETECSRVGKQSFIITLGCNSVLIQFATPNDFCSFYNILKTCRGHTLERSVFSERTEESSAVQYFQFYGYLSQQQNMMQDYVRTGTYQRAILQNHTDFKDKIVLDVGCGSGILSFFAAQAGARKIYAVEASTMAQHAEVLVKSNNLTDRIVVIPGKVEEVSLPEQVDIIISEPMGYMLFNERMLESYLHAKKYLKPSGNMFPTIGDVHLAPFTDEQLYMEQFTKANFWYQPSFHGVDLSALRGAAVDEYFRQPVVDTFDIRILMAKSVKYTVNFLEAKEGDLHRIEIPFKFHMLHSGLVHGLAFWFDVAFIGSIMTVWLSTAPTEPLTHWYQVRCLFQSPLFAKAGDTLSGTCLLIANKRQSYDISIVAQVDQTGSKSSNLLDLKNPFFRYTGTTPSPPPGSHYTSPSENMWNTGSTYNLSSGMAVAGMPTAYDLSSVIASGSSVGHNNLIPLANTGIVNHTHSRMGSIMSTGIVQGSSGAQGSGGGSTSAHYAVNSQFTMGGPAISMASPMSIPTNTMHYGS

- Molecule: "Cc1ccc(Nc2ncc3c(n2)N(C)C(=O)N(c2cccc(N)c2)C3)cn1 [LZQ-02-023-01]"
  Experimental system: "PRMT4 (Homo sapiens, UniProt Q86X55)"
  Display unit: "µM"
  IC50: 19.2

###

Experimental system: other tested methyltransferases
Procedure text: Off-target methyltransferase profiling, panel as a whole
Condition notes: all panel enzymes other than METTL10
Procedure: To evaluate the off‐target effects of LZQ‐02‐023‐01 on methyltransferase activity, a panel of enzymes was assessed using the MTase‐Glo Methyltransferase Assay (Promega), following the manufacturer's instructions. […] Luminescence signals were directly proportional to methyltransferase activity, were recorded using a microplate reader (BMG LABTECH). […]
pIC50: −log10 of the molar value.
Recorded endpoint: pIC50

- Smiles input: "Cc1ccc(Nc2ncc3c(n2)N(C)C(=O)N(c2cccc(N)c2)C3)cn1"
  Result: "< 5.52"

###

Procedure text: Plasma pharmacokinetics after IV and PO administration
Assay type: in vivo, male Sprague–Dawley rats
Condition notes: male, Sprague-Dawley, rat, plasma, po, 10 mg/kg, PO 10 mg/kg vs IV 1 mg/kg; read-out: F (bioavailability), mean
Recorded endpoint: bioavailability (%)

- Smiles input: "Cc1ccc(Nc2ncc3c(n2)N(C)C(=O)N(c2cccc(N)c2)C3)cn1"
  Readout number: 1.82

###

Procedure text: Plasma pharmacokinetics after IV and PO administration
Format: in vivo, male Sprague–Dawley rats
Condition notes: male, Sprague-Dawley, rat, plasma, iv, 1 mg/kg, IV 1 mg/kg, 1 h, individual rats R01-R03; read-out: Plasma concentration

- Smiles input: "Cc1ccc(Nc2ncc3c(n2)N(C)C(=O)N(c2cccc(N)c2)C3)cn1"
  concentration at 1 h / ng/mL: 4.26

###

Procedure text: Plasma pharmacokinetics after IV and PO administration
Assay type: in vivo, male Sprague–Dawley rats
Condition notes: male, Sprague-Dawley, rat, plasma, po, 10 mg/kg, PO 10 mg/kg, 0.5 h, individual rats R04-R06; read-out: Plasma concentration
Recorded endpoint: concentration at 0.5 h (ng/mL)

- Smiles input: "Cc1ccc(Nc2ncc3c(n2)N(C)C(=O)N(c2cccc(N)c2)C3)cn1"
  Recorded endpoint: "concentration at 0.5 h"
  Display unit: "ng/mL"
  Readout number: 14.1
